Each recorded value in this set is attributed to ChEMBL document CHEMBL5030512.

Tested on: HT-29
Experiment: Cytotoxicity against human HT-29 cells assessed as reduction in cell viability measured after 48 hrs by SRB assay
Type: functional, cell-based
Settings: HT-29, 48 h
pIC50: −log10 of the molar value.
parameter: pIC50

{"columns": ["compound", "pIC50"],
 "data": [
  ["O=C(CCc1ccc(O)cc1)c1c(O)cc(OCCOCCOCCS)cc1O[C@@H]1O[C@H](CO)[C@@H](O)[C@H](O)[C@H]1O", "< 4.00"],
  ["O=C(CCCCCN1C(=O)CC(SCCOCCOCCOc2cc(O)c(C(=O)CCc3ccc(O)cc3)c(O[C@@H]3O[C@H](CO)[C@@H](O)[C@H](O)[C@H]3O)c2)C1=O)OCn1cc(F)c(=O)[nH]c1=O (stereo partly drawn)", "< 4.00"]
]}

Let us move to another entry and its pIC50.
Reported pIC50 for "O=C(CCCc1cn(CCOCCOCCOc2cc(O)c(C(=O)CCc3ccc(O)cc3)c(O[C@@H]3O[C@H](CO)[C@@H](O)[C@H](O)[C@H]3O)c2)nn1)OCn1cc(F)c(=O)[nH]c1=O" : what is it?
< 4.00
